- TARGET_OF_ASSAY: purified human, His-tagged PRC2 complex (Homo sapiens (Human), UniProt O75530)
- Sequence (Q15910 whole entry): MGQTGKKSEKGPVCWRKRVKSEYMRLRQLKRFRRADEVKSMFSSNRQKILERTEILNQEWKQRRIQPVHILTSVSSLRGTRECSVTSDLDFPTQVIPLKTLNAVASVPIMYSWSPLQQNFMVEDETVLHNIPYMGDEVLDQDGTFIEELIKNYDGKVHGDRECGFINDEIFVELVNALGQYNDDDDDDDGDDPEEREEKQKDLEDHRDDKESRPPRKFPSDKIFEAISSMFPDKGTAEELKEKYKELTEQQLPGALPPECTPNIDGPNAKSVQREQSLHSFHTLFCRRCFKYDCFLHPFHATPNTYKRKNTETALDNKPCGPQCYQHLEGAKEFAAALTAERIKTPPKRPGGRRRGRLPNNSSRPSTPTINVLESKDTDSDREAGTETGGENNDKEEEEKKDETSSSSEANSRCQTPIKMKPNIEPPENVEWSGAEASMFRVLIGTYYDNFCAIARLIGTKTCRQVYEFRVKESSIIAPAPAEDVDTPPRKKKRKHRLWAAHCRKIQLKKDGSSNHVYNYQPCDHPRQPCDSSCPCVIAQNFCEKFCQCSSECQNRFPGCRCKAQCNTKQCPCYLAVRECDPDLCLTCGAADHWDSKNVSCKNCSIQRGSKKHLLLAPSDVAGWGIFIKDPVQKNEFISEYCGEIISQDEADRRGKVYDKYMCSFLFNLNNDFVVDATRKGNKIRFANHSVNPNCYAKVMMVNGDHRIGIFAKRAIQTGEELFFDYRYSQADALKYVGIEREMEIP
- Sequence (O75530 whole entry): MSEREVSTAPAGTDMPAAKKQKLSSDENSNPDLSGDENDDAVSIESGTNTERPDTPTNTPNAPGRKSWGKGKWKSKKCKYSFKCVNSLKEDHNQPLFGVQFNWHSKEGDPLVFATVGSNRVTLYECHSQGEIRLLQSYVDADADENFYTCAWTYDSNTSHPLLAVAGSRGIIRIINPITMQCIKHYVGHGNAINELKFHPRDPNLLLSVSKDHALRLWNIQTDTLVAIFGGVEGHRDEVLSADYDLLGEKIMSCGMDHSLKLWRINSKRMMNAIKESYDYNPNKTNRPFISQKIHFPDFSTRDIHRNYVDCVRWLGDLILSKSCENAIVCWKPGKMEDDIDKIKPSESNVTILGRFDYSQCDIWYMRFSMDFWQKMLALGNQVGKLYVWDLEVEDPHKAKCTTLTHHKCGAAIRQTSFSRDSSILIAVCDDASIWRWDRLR
- Sequence (Q15022 whole entry partner): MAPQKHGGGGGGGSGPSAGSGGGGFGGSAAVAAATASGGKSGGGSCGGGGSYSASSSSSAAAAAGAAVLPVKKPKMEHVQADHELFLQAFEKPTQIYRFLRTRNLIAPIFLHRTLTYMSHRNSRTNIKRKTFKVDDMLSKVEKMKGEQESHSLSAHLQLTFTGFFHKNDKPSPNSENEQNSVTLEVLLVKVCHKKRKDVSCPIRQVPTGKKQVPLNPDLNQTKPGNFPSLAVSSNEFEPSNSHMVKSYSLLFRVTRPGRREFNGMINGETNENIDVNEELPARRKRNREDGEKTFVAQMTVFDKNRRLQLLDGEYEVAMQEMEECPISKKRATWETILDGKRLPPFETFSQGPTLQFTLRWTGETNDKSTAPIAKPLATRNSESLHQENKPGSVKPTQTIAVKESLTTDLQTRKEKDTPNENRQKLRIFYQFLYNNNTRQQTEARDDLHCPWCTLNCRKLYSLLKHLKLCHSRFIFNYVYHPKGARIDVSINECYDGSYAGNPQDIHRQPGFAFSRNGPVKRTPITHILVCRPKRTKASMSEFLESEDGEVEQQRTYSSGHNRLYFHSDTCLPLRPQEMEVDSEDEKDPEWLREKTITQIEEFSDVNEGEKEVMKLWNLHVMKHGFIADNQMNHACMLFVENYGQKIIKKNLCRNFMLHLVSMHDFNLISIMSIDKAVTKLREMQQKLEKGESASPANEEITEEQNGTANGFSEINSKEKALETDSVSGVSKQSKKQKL
- Sequence (Q6ZN18 whole entry partner): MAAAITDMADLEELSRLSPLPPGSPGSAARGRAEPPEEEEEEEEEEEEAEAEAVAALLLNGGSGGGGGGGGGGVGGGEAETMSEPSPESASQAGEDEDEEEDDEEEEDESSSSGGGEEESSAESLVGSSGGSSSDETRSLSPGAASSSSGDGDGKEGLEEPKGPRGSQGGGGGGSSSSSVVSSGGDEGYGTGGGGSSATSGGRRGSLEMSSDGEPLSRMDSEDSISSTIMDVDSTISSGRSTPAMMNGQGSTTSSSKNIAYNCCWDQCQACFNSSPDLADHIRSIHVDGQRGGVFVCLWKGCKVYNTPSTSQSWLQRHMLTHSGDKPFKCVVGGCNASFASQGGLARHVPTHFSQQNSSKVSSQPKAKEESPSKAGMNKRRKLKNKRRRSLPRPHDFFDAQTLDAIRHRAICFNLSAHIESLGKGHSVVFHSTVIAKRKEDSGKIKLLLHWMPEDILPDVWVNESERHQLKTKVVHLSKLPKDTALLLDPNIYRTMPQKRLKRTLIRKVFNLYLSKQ
- Sequence (Q09028 whole entry partner): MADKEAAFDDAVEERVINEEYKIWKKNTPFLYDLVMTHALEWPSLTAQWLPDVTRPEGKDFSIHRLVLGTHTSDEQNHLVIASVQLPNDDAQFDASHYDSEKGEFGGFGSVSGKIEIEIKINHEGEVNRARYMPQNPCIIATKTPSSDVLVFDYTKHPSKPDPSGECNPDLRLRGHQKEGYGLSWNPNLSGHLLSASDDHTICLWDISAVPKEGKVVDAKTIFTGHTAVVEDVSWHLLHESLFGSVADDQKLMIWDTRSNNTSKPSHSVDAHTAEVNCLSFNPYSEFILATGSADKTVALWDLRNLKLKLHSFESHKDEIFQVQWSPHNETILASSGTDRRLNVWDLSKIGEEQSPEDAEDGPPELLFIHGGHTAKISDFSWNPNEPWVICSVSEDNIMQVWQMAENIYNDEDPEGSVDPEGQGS
- ASSAY_INFO: Hot Spot HMT assay of PRC2 enzymatic activity (tritiated methyl transfer from SAM to core histone)
- Format: biochemical
- CONDITION_LABEL: 10 nM purified PRC2 complex, 0.05 mg/ml core histone H3, 1 uM 3H-SAM, 1 hr at 30° C.; read-out: IC50, Inhibition of PRC2-mediated Enzymatic Activity
MEASUREMENT_TYPE: IC50

Notebook entry, purified human, His-tagged PRC2 complex (Homo sapiens (Human), UniProt O75530) assay: IC50 of Cc1cc(-c2cnc(NCc3c(F)ccc4c3CCO4)n3cc(CN4CC(O)C4)nc23)n(C)n1 [Example 31] = ?
500 to 2000 nM

Notebook entry, purified human, His-tagged PRC2 complex (Homo sapiens (Human), UniProt O75530) assay: IC50 of Cc1cc(-c2cnc(NCc3c(F)ccc4c3CCO4)n3cc(CO)nc23)n(C)n1 [Example 1] = ?
< 250 nM

Notebook entry, purified human, His-tagged PRC2 complex (Homo sapiens (Human), UniProt O75530) assay: IC50 of Cc1cc(-c2cnc(NCc3c(F)ccc4c3CCO4)n3cc(C(C)N)nc23)n(C)n1 (single isomer, unassigned) [Example 11] = ?
500 to 2000 nM

Notebook entry, purified human, His-tagged PRC2 complex (Homo sapiens (Human), UniProt O75530) assay: IC50 of Cc1cc(CN(C)C)ccc1-c1cnc(NCc2c(F)ccc3c2CCO3)n2cc(C(C)N)nc12 (centres unmarked) [Example 37] = ?
< 250 nM

Notebook entry, purified human, His-tagged PRC2 complex (Homo sapiens (Human), UniProt O75530) assay: IC50 of Cc1cc(-c2cnc(NCc3c(F)ccc4c3CCO4)n3cc(CNC4CC4)nc23)n(C)n1 [Example 33] = ?
500 to 2000 nM

Notebook entry, purified human, His-tagged PRC2 complex (Homo sapiens (Human), UniProt O75530) assay: IC50 of CC(N)c1cn2c(NCc3c(F)ccc4c3CCO4)ncc(-c3cc(C(F)(F)F)nn3C)c2n1 (centres unmarked) [Example 36] = ?
< 250 nM

Notebook entry, purified human, His-tagged PRC2 complex (Homo sapiens (Human), UniProt O75530) assay: IC50 of Cc1ncccc1-c1cnc(NCc2c(F)ccc3c2CCO3)n2cc(CN)nc12 [Example 19] = ?
< 250 nM

Notebook entry, purified human, His-tagged PRC2 complex (Homo sapiens (Human), UniProt O75530) assay: IC50 of Cc1cc(S(C)(=O)=O)ccc1-c1cnc(NCc2c(F)ccc3c2CCO3)n2cc(CN)nc12 [Example 13] = ?
< 250 nM

Notebook entry, purified human, His-tagged PRC2 complex (Homo sapiens (Human), UniProt O75530) assay: IC50 of Cc1cc(-c2cnc(NCc3c(F)ccc4c3CCO4)n3cc(-c4nnco4)nc23)n(C)n1 [Example 44] = ?
< 250 nM

Notebook entry, purified human, His-tagged PRC2 complex (Homo sapiens (Human), UniProt O75530) assay: IC50 of Cc1cc(-c2cnc(NCc3c(F)ccc4c3CCO4)n3cc(CN(C)C)nc23)n(C)n1 [Example 26] = ?
500 to 2000 nM

Notebook entry, purified human, His-tagged PRC2 complex (Homo sapiens (Human), UniProt O75530) assay: IC50 of NCc1cn2c(NCc3c(F)ccc4c3CCO4)ncc(-c3cccc(F)c3)c2n1 [Example 14] = ?
250 to 500 nM

Notebook entry, purified human, His-tagged PRC2 complex (Homo sapiens (Human), UniProt O75530) assay: IC50 of CNCc1cn2c(NCc3c(F)ccc4c3CCO4)ncc(-c3cc(C)nn3C)c2n1 [Example 25] = ?
250 to 500 nM

Notebook entry, purified human, His-tagged PRC2 complex (Homo sapiens (Human), UniProt O75530) assay: IC50 of Cc1cc(-c2cnc(NCc3c(F)ccc4c3CCO4)n3cc(C(C)N)nc23)ccn1 (centres unmarked) [Example 38] = ?
< 250 nM

Notebook entry, purified human, His-tagged PRC2 complex (Homo sapiens (Human), UniProt O75530) assay: IC50 of Cc1cc(-c2cnc(NCc3c(F)ccc4c3CCO4)n3cc(C(C)N)nc23)n(C)n1 (single isomer, unassigned) [Example 12] = ?
< 250 nM

* * *

- TARGET_OF_ASSAY: purified human, His-tagged PRC2 complex (Homo sapiens (Human))
- ASSAY_INFO: Hot Spot HMT assay of PRC2 enzymatic activity (tritiated methyl transfer from SAM to core histone)
- Type: biochemical
- CONDITION_LABEL: 10 nM purified PRC2 complex, 0.05 mg/ml core histone H3, 1 uM 3H-SAM, 1 hr at 30° C.; read-out: IC50, Inhibition of PRC2-mediated Enzymatic Activity
IC50 for assorted compounds

The examples below pair each entry with its known result.
Cc1cc(-c2cnc(NCc3c(F)ccc4c3CCO4)n3cc(CNC4CCC4)nc23)n(C)n1 : 500 to 2000 nM
Cc1cc(S(C)(=O)=O)ccc1-c1cnc(NCc2c(F)ccc3c2CCO3)n2cc(C(C)N)nc12 (stereo not drawn) : < 250 nM
Cc1cc(S(C)(=O)=O)ccc1-c1cnc(NCc2c(F)ccc3c2CCO3)n2cc(CO)nc12 : < 250 nM
Cc1cc(-c2cnc(NCc3c(F)ccc4c3CCO4)n3cc(-c4cnco4)nc23)n(C)n1 : < 250 nM
NCc1cn2c(NCc3c(F)ccc4c3CCO4)ncc(-c3cc(F)cc(F)c3)c2n1 : 500 to 2000 nM

I'd like to know its IC50. The compound in question is `NCc1cn2c(NCc3c(F)ccc4c3CCO4)ncc(-c3ccccc3Cl)c2n1`
500 to 2000 nM

I'd like to know its IC50. The compound in question is `COc1ccc(-c2cnc(NCc3c(F)ccc4c3CCO4)n3cc(CO)nc23)c(C)n1`
500 to 2000 nM

I'd like to know its IC50. The compound in question is `Cc1cc(-c2cnc(NCc3cccc4c3CCO4)n3cc(CN)nc23)n(C)n1`
500 to 2000 nM

I'd like to know its IC50. The compound in question is `Cc1cc(-c2cnc(NCc3c(F)ccc4c3CCO4)n3cc(CNCc4ccccc4)nc23)n(C)n1`
500 to 2000 nM

I'd like to know its IC50. The compound in question is `Cc1cc(-c2cnc(NCc3c(F)ccc4occc34)n3cc(CN)nc23)n(C)n1`
500 to 2000 nM

I'd like to know its IC50. The compound in question is `Cc1cc(-c2cnc(NCc3c(F)ccc4c3CCO4)n3cc(-c4nn[nH]n4)nc23)n(C)n1`
< 250 nM

I'd like to know its IC50. The compound in question is CC(N)c1cn2c(NCc3c(F)ccc4c3CCO4)ncc(-c3cc(C#N)nn3C)c2n1 (stereo not drawn)
< 250 nM

* * *

pIC50 for assorted compounds
- TARGET_OF_ASSAY: purified human, His-tagged PRC2 complex (Homo sapiens (Human), UniProt O75530)
- ASSAY_INFO: Hot Spot HMT assay of PRC2 enzymatic activity (tritiated methyl transfer from SAM to core histone)
- Format: biochemical
- CONDITION_LABEL: 10 nM purified PRC2 complex, 0.05 mg/ml core histone H3, 1 uM 3H-SAM, 1 hr at 30° C.; read-out: IC50, Inhibition of PRC2-mediated Enzymatic Activity
pIC50: −log10 of the molar value.

The examples below pair each entry with its known result.
Cc1cc(-c2cnc(NCc3c(F)ccc4c3CCO4)n3cc(C(N)C4CC4)nc23)n(C)n1 (stereo not drawn) : > 6.60
Cc1cccc(-c2cnc(NCc3c(F)ccc4c3CCO4)n3cc(CN)nc23)c1 : 5.70 to 6.30

I'd like to know its pIC50. The compound in question is `Cn1nc(C(F)(F)F)cc1-c1cnc(NCc2c(F)ccc3c2CCO3)n2cc(CN)nc12`
6.30 to 6.60

I'd like to know its pIC50. The compound in question is `Cn1nccc1-c1cnc(NCc2c(F)ccc3c2CCO3)n2cc(CO)nc12`
6.30 to 6.60

I'd like to know its pIC50. The compound in question is Cc1cc(-c2cnc(NCc3c(F)ccc4c3CCO4)n3cc(C(C)O)nc23)n(C)n1 (stereo not drawn)
> 6.60

I'd like to know its pIC50. The compound in question is Cc1cc(C(=O)N(C)C)ncc1-c1cnc(NCc2c(F)ccc3c2CCO3)n2cc(C(C)N)nc12 (stereo not drawn)
> 6.60

I'd like to know its pIC50. The compound in question is `COCc1cn2c(NCc3c(F)ccc4c3CCO4)ncc(-c3cc(C)nn3C)c2n1`
5.70 to 6.30

I'd like to know its pIC50. The compound in question is `OCc1cn2c(NCc3c(F)ccc4c3CCO4)ncc(-c3ccc(C4CC4)nc3)c2n1`
5.70 to 6.30
